assay-system: Anoctamin-1 (Mus musculus)
assay-name: TMEM16A chloride channel inhibitors, primary screen, cell-based, HTS (AID 588511)
measurement-parameters: HEK293 TMEM16A/YFP iodide influx fluorescence, ionomycin; at 10 µM
The whole screen tested about 310,000 compounds, of which about 3,600 (1.2%) were called active.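 Rule for the calls: active = ratio plate-corrected score three or more library SD toward inhibition, starting fluorescence score within five deviations; inactive = the rest.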 What follows is part of a selection rich in actives, with near analogues and random picks from the rest.
Your reply should match one of these outcome classes. active, inactive

Check out these entries, answers already filled in.
{"columns": ["compound", "assay-system", "answer-label"],
 "data": [
  ["O=C(Cn1c(=O)n(CC2CS2)c2ccccc21)N1CCCCC1 (configuration not stated)", "Anoctamin-1 (Mus musculus)", "inactive"],
  ["COc1ccc(-n2c(-c3ccccc3)nc3ccccc3c2=O)cc1", "Anoctamin-1 (Mus musculus)", "inactive"],
  ["CCCCCn1c(=O)c(C(=O)NCc2ccccn2)c(O)c2ccccc21", "Anoctamin-1 (Mus musculus)", "active"],
  ["COc1ccccc1NC(=O)N1C[C@@H]2C[C@@H](C1)c1cccc(=O)n1C2", "Anoctamin-1 (Mus musculus)", "inactive"],
  ["CCCCCn1c(=O)c(C(=O)NCc2ccccc2)c(O)c2ccccc21", "Anoctamin-1 (Mus musculus)", "inactive"]
]}

Record lookup: outcome of this test for CCCCn1c(=O)c(C(=O)Nc2ccccc2Cl)c(O)c2ccccc21 ?
inactive

Record lookup: outcome of this test for COc1ccc(-c2nn(CCC#N)cc2C(=O)Nc2ccc(C(C)=O)cc2)cc1 ?
inactive

Record lookup: outcome of this test for CC1(C)C(c2ccccc2)=NC(c2cccnc2)=[N+]1[O-] ?
inactive

Record lookup: outcome of this test for O=c1[nH]c(=O)n(-c2ccccc2)c(O)c1C=NC12CN3CN(CN(C3)C1)C2 ?
inactive

Record lookup: outcome of this test for CCN(CC)C(=O)c1ccc(NC(=O)c2sccc2-c2ccccc2)cc1 ?
inactive

Record lookup: outcome of this test for CCCCCCCCCCCCn1ccc(=N)cc1 ?
active

Record lookup: outcome of this test for O=[N+]([O-])c1ccc(C2C3C(c4ccccc4)=NC4(CCCCC4)N32)cc1 (configuration not stated) ?
inactive

Source listed as PubChem BioAssay AID588511.
